The measured values listed here are drawn from patent US11033539B2.

Reported Ki values follow for various compounds
Target: human M1 receptor (Homo sapiens (Human))
Sequence (P11229 whole entry): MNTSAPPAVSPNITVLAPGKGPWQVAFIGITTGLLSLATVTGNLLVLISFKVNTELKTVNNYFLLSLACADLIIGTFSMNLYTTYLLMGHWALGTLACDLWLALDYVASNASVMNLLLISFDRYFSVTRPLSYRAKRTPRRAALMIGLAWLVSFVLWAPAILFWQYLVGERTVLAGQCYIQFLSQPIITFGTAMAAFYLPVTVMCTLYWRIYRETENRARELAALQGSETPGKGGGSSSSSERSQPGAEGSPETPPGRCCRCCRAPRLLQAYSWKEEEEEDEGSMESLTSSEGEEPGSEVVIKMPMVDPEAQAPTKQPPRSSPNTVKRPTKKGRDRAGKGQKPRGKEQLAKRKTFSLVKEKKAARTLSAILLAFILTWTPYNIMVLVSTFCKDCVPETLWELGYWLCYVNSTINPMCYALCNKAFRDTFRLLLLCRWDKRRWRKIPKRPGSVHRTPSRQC
Experiment: Radioligand (tritiated N-methylscopolamine) binding assay, M1
Conditions: CHO cell membranes expressing human M1; 1.5 nM tritiated N-methylscopolamine; 90 min, 37° C.; read-out: Ki against M1 receptor (Table 21, M1)
Method: Binding affinity (Ki) of compounds was measured by inhibition of radioligand binding to membranes from CHO cells expressing human M1, M2, M3, M4 and M5 receptors. […] Harvesting and radioactivity counting was conducted as previously described (see, e.g., Hoare et al., Mol. Pharmacol. 2003 63(3):751-65); Erratum at Mol. Pharmacol. 2005 July; 68(1): 260).

Known Ki results, listed for orientation:
C[C@@H]1CN(c2ncc(C#N)cn2)C[C@H](C)N1C(=O)NCCC1CCN(Cc2ccccc2)CC1 [21-15]
> 1 µM
C[C@H]1CN(c2ncc(Cl)cn2)CCC1C(=O)NCCC1CCN(Cc2ccccc2)CC1 (some centres unmarked)
0.1 to 1 µM
C[C@@H]1CN(c2ncc(C#N)cn2)C[C@H](C)N1C(=O)NCCC1CCN(CC[Si](C)(C)C)CC1
0.01 to 0.1 µM
C[C@H]1CN(c2ccc(C(F)(F)F)cn2)CCC1C(=O)NCCC1CCN(Cc2ccccc2)CC1 (some centres unmarked)
0.01 to 0.1 µM
C[C@H]1CN(c2ccc(OC(F)(F)F)cc2)CCN1C(=O)NCCC1CCN(Cc2ccccc2)CC1
0.1 to 1 µM

State, in one line, measured Ki of `C[C@H]1CN(C(=O)NCCC2CCN(Cc3ccccc3)CC2)CCN1c1cc(F)c(F)c(F)c1` 0.1 to 1 µM

State, in one line, measured Ki of `Cc1c(C(=O)NC[C@@H](O)C2CCN(Cc3ccccc3)CC2)cnc2cc(-c3cccc(C(F)(F)F)c3)nn12` 0.1 to 1 µM
